These entries and their values trace back to patent US5977442A.

Study system: p48 SIP kinase (Nicotiana tabacum, UniProt A0A1S3Z5Y0)
Construct: endogenous in cells; host or cells: SA-treated tobacco suspension culture cells (purified through the poly-L-lysine agarose step)
Sequence (A0A1S3Z5Y0 whole entry): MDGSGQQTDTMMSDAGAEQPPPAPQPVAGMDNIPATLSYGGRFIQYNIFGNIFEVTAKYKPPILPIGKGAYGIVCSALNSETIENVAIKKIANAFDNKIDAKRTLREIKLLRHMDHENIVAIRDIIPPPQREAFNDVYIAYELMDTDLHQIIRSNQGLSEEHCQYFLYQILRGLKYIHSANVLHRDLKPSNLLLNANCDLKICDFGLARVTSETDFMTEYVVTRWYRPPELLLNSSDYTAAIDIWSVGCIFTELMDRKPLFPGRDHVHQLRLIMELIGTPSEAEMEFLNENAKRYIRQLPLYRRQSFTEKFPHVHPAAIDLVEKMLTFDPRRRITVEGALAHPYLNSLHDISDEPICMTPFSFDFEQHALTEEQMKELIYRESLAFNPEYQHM
Run description: In-solution kinase assay: effects of various reagents on p48 SIP kinase activity
Format: biochemical, tobacco
Particulars: partially purified p48 SIP kinase
Readout: effect on p48 SIP kinase activity

[Zn+2]: inhibited the enzyme
[Ca+2]: inhibited the enzyme
